Data origin: the RNAGym collection of RNA variant scans (doi:10.1093/nar/gkz1192)

B1: CPEB3 Ribozyme (parent)
chain: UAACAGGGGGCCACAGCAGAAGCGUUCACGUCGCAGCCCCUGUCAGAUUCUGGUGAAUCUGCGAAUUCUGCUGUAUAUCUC

- Variants of: B1
- protocol notes: self-cleavage, relative activity (ratio to wild type); higher = more cleavage; in vitro, sequencing
# key: entry, value: self-cleavage
Reply with the value as a number alone.

1) UAACAGGAGGCCUCAGCAGAAGCGUUCACGUCGCAGCCCCUGUCAGAUUCUGGUGAAUCUGCGAAUUCUGCUGUAUAUCUC [G8A A13U]: 0.3

Give recorded self-cleavage. UAACAGGGGGCCACAGCAGAAGUGUUCACGUCGCAGCCCCUGUCAGAUUCUGGUGAAUCAGCGAAUUCUGCUGUAUAUCUC [C23U U60A]
0.26

Give recorded self-cleavage. UAACAGGGGGCCACAGCAGAAGCGCUCACGUCGCAGCCCCUGUCAGAUUCUGGUGAAUCUGCGGAUUCUGCUGUAUAUCUC [U25C A64G]
0.3

Give recorded self-cleavage. UAACAGGGGGCCACGGCAGAAGCGUUCACGUCGCAGCCCCUGCCAGAUUCUGGUGAAUCUGCGAAUUCUGCUGUAUAUCUC [A15G U43C]
0.47

Give recorded self-cleavage. UAACAGGGGGCCACAGCAUAAGCGUUCACGUCGCAGCCCCUGUCAGAUUCUGGUGAAUCCGCGAAUUCUGCUGUAUAUCUC [G19U U60C]
0.28

Give recorded self-cleavage. UAACAGGGGGCCACUGCAGAAGCGUUCACGUCGCAGCCCCUGUCAGAUUCUGGUGAAUCUGCGAAUUCUGCUGUAUCUCUC [A15U A77C]
0.41

Give recorded self-cleavage. UAACAGGGGGCCACAGCAGAAGCGUUCCCGUCGCAGCCCCUGUCAGAUUCUGGUGAAUCUGCGAACUCUGCUGUAUAUCUC [A28C U66C]
0.28

Give recorded self-cleavage. UAACAGGGGGCCACAGCAGAAGCGUCCACGUCGCAGCCCCUGUCAAAUUCUGGUGAAUCUGCGAAUUCUGCUGUAUAUCUC [U26C G46A]
0.17
